target: UniProt A0JN73; assay: Inhibition of calf thymus Topoisomerase 1-mediated relaxation of supercoiled pBR322 DNA at 100 uM after 30 mins by gel electrophoresis
Sequence (A0JN73 as listed by the source): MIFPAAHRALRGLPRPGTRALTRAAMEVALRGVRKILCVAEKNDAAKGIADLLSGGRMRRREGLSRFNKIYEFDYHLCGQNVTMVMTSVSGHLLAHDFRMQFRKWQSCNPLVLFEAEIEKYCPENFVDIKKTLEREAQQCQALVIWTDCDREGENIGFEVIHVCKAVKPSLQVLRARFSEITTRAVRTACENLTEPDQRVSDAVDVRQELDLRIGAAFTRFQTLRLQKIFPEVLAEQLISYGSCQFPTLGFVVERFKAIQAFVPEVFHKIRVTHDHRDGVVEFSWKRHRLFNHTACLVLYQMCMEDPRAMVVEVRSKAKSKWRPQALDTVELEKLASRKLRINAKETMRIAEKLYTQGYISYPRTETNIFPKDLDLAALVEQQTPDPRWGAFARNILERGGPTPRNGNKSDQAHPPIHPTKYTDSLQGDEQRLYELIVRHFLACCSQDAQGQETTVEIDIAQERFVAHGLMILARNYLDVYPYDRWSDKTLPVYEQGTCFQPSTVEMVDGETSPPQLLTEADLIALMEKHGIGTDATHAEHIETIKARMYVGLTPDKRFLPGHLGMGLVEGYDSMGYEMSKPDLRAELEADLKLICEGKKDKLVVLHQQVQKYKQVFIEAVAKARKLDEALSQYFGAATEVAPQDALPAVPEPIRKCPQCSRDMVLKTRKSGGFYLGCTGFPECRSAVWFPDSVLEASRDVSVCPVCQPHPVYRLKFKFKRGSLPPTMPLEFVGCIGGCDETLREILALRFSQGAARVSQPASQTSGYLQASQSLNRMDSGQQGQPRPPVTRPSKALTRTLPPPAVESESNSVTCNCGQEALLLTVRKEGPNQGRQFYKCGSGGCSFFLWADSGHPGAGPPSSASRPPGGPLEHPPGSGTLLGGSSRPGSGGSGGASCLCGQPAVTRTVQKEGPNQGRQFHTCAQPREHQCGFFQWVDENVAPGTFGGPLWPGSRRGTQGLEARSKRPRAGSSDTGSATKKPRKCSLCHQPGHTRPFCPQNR
Calls of active or inactive are those of the source. No cut-off for these calls is given here.
RESULT_TYPE: inhibition

| COMPOUND | VAL |
| --- | --- |
| COc1cc(-c2c3c4cc(OC)c(O)c(CN(C)C)c4oc(=O)c3n3ccc4c(CN(C)C)c(O)c(OC)cc4c23)ccc1O | Active |
| CCN(CC)Cc1c(O)c(OC)cc2c1oc(=O)c1c2c(-c2ccc(O)c(OC)c2)c2c3cc(OC)c(O)cc3ccn21 | Active |
| COc1cc(-c2c3c4cc(OC)c(O)c(CN5CCOCC5)c4oc(=O)c3n3ccc4cc(O)c(OC)cc4c23)ccc1O | Active |
| COc1cc(-c2c3c4cc(OC)c(O)cc4oc(=O)c3n3ccc4c(CN(C)C)c(O)c(OC)cc4c23)ccc1O | Active |
| CCCN(CCC)Cc1c(O)c(OC)cc2c1oc(=O)c1c2c(-c2ccc(O)c(OC)c2)c2c3cc(OC)c(O)c(CN(C)C)c3ccn21 | Active |
| COc1cc(-c2c3c4cc(OC)c(O)c(CN(C)C)c4oc(=O)c3n3ccc4cc(O)c(OC)cc4c23)ccc1O | inactive |
| COc1cc(-c2c3c4cc(OC)c(O)cc4oc(=O)c3n3ccc4c(CN5CCCCC5)c(O)c(OC)cc4c23)ccc1O | Active |
| COc1cc(-c2c3c4cc(OC)c(O)cc4oc(=O)c3n3ccc4c(CN5CCOCC5)c(O)c(OC)cc4c23)ccc1O | Active |
| COc1cc(-c2c3c4cc(OC)c(O)cc4oc(=O)c3n3ccc4cc(O)c(OC)cc4c23)ccc1O [LAMELLARIN D] | Active |
| COc1cc2c(cc1O)oc(=O)c1c2c(-c2cc(CN(C)C)c(O)c(OC)c2)c2c3cc(OC)c(O)cc3ccn21 | inactive |
| COc1cc(-c2c3c4cc(OC)c(O)c(CN5CCCCC5)c4oc(=O)c3n3ccc4cc(O)c(OC)cc4c23)ccc1O | Active |
| CCCN(CCC)Cc1c(O)c(OC)cc2c1oc(=O)c1c2c(-c2ccc(O)c(OC)c2)c2c3cc(OC)c(O)cc3ccn21 | Active |
| COc1cc(-c2c3n(c4c(=O)oc5cc(O)c(OC)cc5c24)CCc2cc(O)c(OC)cc2-3)ccc1O | inactive |

Reference for the values: ChEMBL document CHEMBL3352321
